So I've got a bunch of molecules here, and I need their GI50 values.
# System: NCI/ADR-RES
# Protocol details: NCI tumour cell line growth inhibition, 48 h
Active and inactive are the calls of the source. Rule as the data show it: active = GI50 up to about 1.1 µM and inactive = higher.

Look over these answered cases.
* CCOC(=O)c1[nH]c(Br)c(-c2ccc(Br)cc2)c1Br | 0.201 µM (active)
* CCOc1ccc(C2Oc3c(cccc3OC)C=C2[N+](=O)[O-])cc1OCC (stereo unspecified) | 3.15 µM (inactive)
* O=c1c2cc(I)ccc2nc(-c2cccs2)n1O | 41.1 µM (inactive)
* Oc1ccnc(SCc2ccc(Cl)cc2)n1 | > 100 µM (inactive)
* CC1(C)C2CCC(O)(C2)C1N (stereo unspecified) | > 100 µM (inactive)

I need GI50 for every entry listed below, if you could help.
1. Nn1c(CCCCCCCCc2nnc(-c3c(O)ccc4ccccc34)n2N)nnc1-c1c(O)ccc2ccccc12
2. COc1ccccc1N1CCN(S(=O)(=O)c2ccc(Cl)cc2)C1=N
3. COc1cc([N+](=O)[O-])c(S(=O)(=O)O)cc1NS(=O)(=O)c1ccc(C)cc1
4. COC(=O)Nc1nc2cc(S(=O)(=O)Nc3ccccn3)ccc2[nH]1
5. COC(=O)[C@H](Cc1ccccc1)NP(=O)(O)OCC1OC(n2cc(C)c(=O)[nH]c2=O)CC1N=[N+]=[N-] (stereo partly specified)
6. O=C(CBr)NCCc1c[nH]c2ccccc12

1: > 100 µM (inactive); 2: 61.2 µM (inactive); 3: > 100 µM (inactive); 4: 34.1 µM (inactive); 5: > 100 µM (inactive); 6: 2.11 µM (inactive)

###

# Tested on: SN12C
# Protocol details: NCI tumour cell line growth inhibition, 48 h
The source made the active and inactive calls. No stated cut-off is given here; in the data, active = GI50 up to about 1.1 µM and inactive = higher.
Log the outcome using a class from yes for active, no for inactive

Examples with answers:
• C1CN(C23OC4(N5CCOCC5)C5C6CC(C7C6C4C72)C53)CCO1 (stereo not drawn) = no
• Cn1c(-c2ccccc2)cc(-c2ccc3c(c2)OCO3)c1-c1cccs1 = no
• Cc1c(CN2CCOCC2)c(CN2CCOCC2)c(C)n1-c1ccc(Cl)cn1 = no
• CC(C)=CC(=O)OC1C2C(C)=CC(=O)C(O)C2(C)C2C3(O)OCC24C(CC(=O)OC14)C(C)C3O (stereo not drawn) = yes
• Cc1nn(-c2ccccc2)c2c1N=C(C(=O)O)CC(c1ccccc1)=N2 = no

# outcome recorded in this test, key = CC(=O)OCC1OC(Oc2cc(C)c(O)cc2C/C=C(\C)CC/C=C(\C)C[C@@H](C=C(C)C)OC(C)=O)C(O)C(OC(C)=O)C1OC(C)=O (stereo partly drawn)
no

Okay, and N#C[C@@H](c1ccccn1)c1ncccc1[N+](=O)[O-] ?
no

Okay, and CC1(C)CC[C@]2(C(=O)O)CC[C@]3(C)C(=CC[C@@H]4[C@@]5(C)CC[C@H](OC6OC(C(=O)O)C(O)C(O)C6O)C(C)(C)[C@@H]5CC[C@]43C)[C@@H]2C1 (stereo partly drawn) ?
no

Okay, and COC(OC)c1cccc2c1C(=O)CCC1(CC2)OCCCCO1 ?
no

Okay, and O=C1CSc2ccnc(=O)n21 ?
no

Okay, and CN1C(=O)N(c2nc3ccccc3[nH]2)C(C)(C)C1=O ?
no

###

# Test system: UACC-257
# Protocol details: NCI tumour cell line growth inhibition, 48 h
Calls of active or inactive are those of the source. Cut-off read from the data, not from the text of the source: active = GI50 up to about 1.1 µM and inactive = higher.
Result type: GI50

Look over these answered cases.
* Cc1ccc(CCCC(=O)O)cc1C | > 100 µM (inactive)
* CCOC(=O)/C(ON)=C(/CC/C(C(=O)OC)=C(\ON)C(=O)OCC)C(=O)OC | > 100 µM (inactive)
* Sc1ncc(-c2cncc(-c3cnc(S)nc3)n2)cn1 | > 100 µM (inactive)
* CCOC(=O)CCC(NC(=O)OCc1ccccc1)C(=O)NNC(=O)OC(C)(C)C (configuration not stated) | > 100 µM (inactive)

I need GI50 for every entry listed below, if you could help.
1. O=C1c2c(c3c4ccccc4n(CC4CO4)c3c3[nH]c4ccccc4c23)C(=O)N1Cc1ccccc1 (configuration not stated)
2. CCOC(=O)c1sc2nc(SC)nc(N3CCCCC3)c2c1N

["> 100 µM (inactive)", "5.07 µM (inactive)"]

Hey, just so you know, these numbers are from ChEMBL document CHEMBL1201862.
